B1: r4_43_TrROS_Hall (parent)
chain: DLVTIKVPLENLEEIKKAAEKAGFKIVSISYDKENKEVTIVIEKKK

- Variants of: B1
- assay name: folding stability dG (cDNA display proteolysis); higher = more stable
- measurement conditions: PBS, room temperature
measure name: folding stability dG (kcal/mol)
One number for each entry, in kcal/mol.

V38I: 3.66
V27F: 3.87
K45S: 3.72
L9E: 3.46
I26T: 2.76
S28M: 3.28
I15R: 3.42
V3W: 4.34

# per-item lookup of folding stability dG; items listed below
1. F24H
2. T39N
3. S28T
4. I42C

(A)
1. 2.73
2. 3.14
3. 3.48
4. 3.24

# per-item lookup of folding stability dG; items listed below
1. T4F
2. E37Y
3. K46W
4. A18Y
5. K44N
6. K33H

(A)
[3.68, 3.9, 4.4, 3.84, 3.53, 3.73]

# per-item lookup of folding stability dG; items listed below
1. N11I
2. K16P
3. S30C
4. A19L
5. I29Q
6. K46Q
7. I15C
8. I40T

(A)
3.73
1.97
3.53
3.69
3.28
3.86
3.45
1.73

# per-item lookup of folding stability dG; items listed below
1. V38G
2. K36N
3. E34Y
4. E13A
5. I15L

(A)
1: 3.18; 2: 3.51; 3: 3.81; 4: 3.28; 5: 3.71

# per-item lookup of folding stability dG; items listed below
1. K45G
2. I42Y
3. P8E
4. E20D
5. V27W
6. E37M
7. E20I
8. D32M

(A)
3.87
4.47
3.19
3.49
4.34
3.64
3.65
3.48

# per-item lookup of folding stability dG; items listed below
1. K45E
2. K46S
3. L2D
4. I40F
5. E14C

(A)
[3.5, 3.72, 3.35, 3.93, 4.03]

# per-item lookup of folding stability dG; items listed below
1. L12P
2. S28Q
3. D1Y

(A)
1. 1.92
2. 3.48
3. 3.87

# per-item lookup of folding stability dG; items listed below
1. I29A
2. L12E
3. K33A

(A)
1. 3.16
2. 3.55
3. 3.49
